# system tested: c-erbB-2 (baculovirus expressed, recombinant intracellular domain) (Homo sapiens, UniProt P04626)
# Construct: baculovirus expressed, recombinant constructs of the intracellular domains of c-erbB-2 and c-erbB-4; made in house
# Sequence (P04626 676-1255 limits assumed): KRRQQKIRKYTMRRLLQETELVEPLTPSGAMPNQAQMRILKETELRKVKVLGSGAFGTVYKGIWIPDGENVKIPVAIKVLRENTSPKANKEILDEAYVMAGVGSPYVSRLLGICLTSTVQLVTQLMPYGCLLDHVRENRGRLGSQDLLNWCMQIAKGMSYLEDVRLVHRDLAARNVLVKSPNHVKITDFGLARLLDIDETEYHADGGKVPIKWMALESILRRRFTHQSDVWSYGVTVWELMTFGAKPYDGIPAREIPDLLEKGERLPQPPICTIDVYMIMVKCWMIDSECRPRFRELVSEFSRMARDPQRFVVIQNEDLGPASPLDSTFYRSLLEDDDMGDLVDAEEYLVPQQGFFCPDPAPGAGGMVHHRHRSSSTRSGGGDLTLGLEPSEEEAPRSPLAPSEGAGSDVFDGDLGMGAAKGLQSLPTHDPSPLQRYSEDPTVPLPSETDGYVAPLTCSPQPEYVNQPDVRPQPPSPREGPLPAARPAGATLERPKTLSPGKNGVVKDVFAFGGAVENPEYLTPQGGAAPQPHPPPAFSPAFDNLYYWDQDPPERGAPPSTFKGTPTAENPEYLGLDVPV
# protocol details: Substrate phosphorylation assay, c-erbB-2
# Format: biochemical
# condition description: 30 minutes, room temperature, ATP and peptide at Km concentrations; read-out: Substrate Phosphorylation erbB-2
Structures can show the parent of a compound that is named as a salt.

| compound | IC50 [nM] |
| --- | --- |
| Cc1nnc(-c2ccc3ncnc(Nc4ccc(OCc5cccc(F)c5)cc4)c3c2)o1 [Example 29, hydrochloride] | 3 |

---

# system tested: c-erbB-4 (baculovirus expressed, recombinant intracellular domain) (Homo sapiens)
# Construct: baculovirus expressed, recombinant constructs of the intracellular domains of c-erbB-2 and c-erbB-4
# Sequence (Q15303 676-1308 limits assumed): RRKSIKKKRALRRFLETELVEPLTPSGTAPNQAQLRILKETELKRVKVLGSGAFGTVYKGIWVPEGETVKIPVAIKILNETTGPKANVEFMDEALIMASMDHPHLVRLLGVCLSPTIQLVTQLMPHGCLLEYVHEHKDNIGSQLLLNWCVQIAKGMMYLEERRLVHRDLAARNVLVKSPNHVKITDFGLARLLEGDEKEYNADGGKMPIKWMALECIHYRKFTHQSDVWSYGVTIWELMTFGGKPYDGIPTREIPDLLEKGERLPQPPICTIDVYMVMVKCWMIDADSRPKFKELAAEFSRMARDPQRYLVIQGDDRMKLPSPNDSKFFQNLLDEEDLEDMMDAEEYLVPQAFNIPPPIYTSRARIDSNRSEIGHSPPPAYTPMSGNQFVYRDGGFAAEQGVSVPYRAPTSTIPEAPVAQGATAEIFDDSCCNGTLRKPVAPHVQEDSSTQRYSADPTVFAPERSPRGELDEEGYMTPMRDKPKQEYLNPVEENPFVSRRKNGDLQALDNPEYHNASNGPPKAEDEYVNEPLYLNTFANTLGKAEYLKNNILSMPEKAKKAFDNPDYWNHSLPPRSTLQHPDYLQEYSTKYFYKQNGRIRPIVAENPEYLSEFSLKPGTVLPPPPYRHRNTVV
# protocol details: Substrate phosphorylation assay, c-erbB-4
Where a name gives a salt, the structure may show the parent alone.
measured parameter: IC50 (µM)

| molecule | units symbol | numeric value |
| --- | --- | --- |
| c1ccc(COc2ccc(Nc3ncnc4ccc(-c5ccccn5)cc34)cc2)cc1 [Example 3] | µM | 8.6 |
| CN1CCN(Cc2ccc(-c3ccc4ncnc(Nc5ccc(OCc6ccccc6)cc5)c4c3)o2)CC1 [Example 10] | µM | 0.78 |
| c1ccc(COc2ccc(Nc3ncnc4ccc(-c5ncccn5)cc34)cc2)cc1 [Example 4] | µM | 6.4 |
| Cc1nnc(-c2ccc3ncnc(Nc4ccc5c(cnn5Cc5ccccc5)c4)c3c2)o1 [Example 41, hydrochloride] | µM | 1 |
| Cc1nocc1-c1ccc2ncnc(Nc3ccc(OCc4ccccc4)cc3)c2c1 [Example 85] | µM | 9.7 |
| c1ccc(COc2ccc(Nc3ncnc4ccc(-c5nnn[nH]5)cc34)cc2)cc1 [Example 40] | µM | 0.97 |
| O=Cc1ccc(-c2ccc3ncnc(Nc4ccc(OCc5ccccc5)cc4)c3c2)o1 [Example 9] | µM | 0.43 |

---

# Tested on: Calu3-lung tumour cell line
# protocol details: Cell proliferation assay, Calu3
# Type: cell-based, human
# condition description: Homo sapiens, Calu-3, 96 h; same methodology, 4 days
Counter-ions that a name gives are not always drawn.
# key: entry, value: IC50
measured parameter: IC50 (nM)

| compound | numeric value |
| --- | --- |
| CN1CCN(Cc2ccc(-c3ccc4ncnc(Nc5ccc(OCc6ccccc6)cc5)c4c3)o2)CC1 [Example 10] | 2200 |
| NC(=O)[C@@H]1CCCN1Cc1ccc(-c2ccc3ncnc(Nc4ccc(OCc5ccccc5)cc4)c3c2)o1 [Example 11] | 930 |
| Cc1nnc(-c2ccc3ncnc(Nc4ccc5c(cnn5Cc5ccccc5)c4)c3c2)o1 [Example 41, hydrochloride] | 5300 |
| c1ccc(COc2ccc(Nc3ncnc4ccc(-c5ccc(C6OCCO6)o5)cc34)cc2)cc1 [Example 5] | 780 |
| NC(=O)[C@@H]1CCCN1Cc1ccc(-c2ccc3ncnc(Nc4ccc5c(cnn5Cc5ccccc5)c4)c3c2)o1 [Example 18, dihydrochloride] | 360 |
| c1ccc(COc2ccc(Nc3ncnc4ccc(-c5cccs5)cc34)cc2)cc1 [Example 2] | 4600 |
| Cc1nnc(-c2ccc3ncnc(Nc4ccc(S(=O)(=O)c5ccccc5)cc4)c3c2)o1 [Example 30, hydrochloride] | 18000 |
| Cc1nnc(-c2ccc3ncnc(Nc4ccc5c(cnn5Cc5cccc(F)c5)c4)c3c2)o1 [Example 22, hydrochloride] | 2200 |

---

# system tested: c-erbB-2 (baculovirus expressed, recombinant intracellular domain) (Homo sapiens, UniProt P04626)
# Construct: baculovirus expressed, recombinant constructs of the intracellular domains of c-erbB-2 and c-erbB-4; made in house
# protocol details: Substrate phosphorylation assay, c-erbB-2
# Type: biochemical
# condition description: read-out: Substrate Phosphorylation erbB-2
Where a name gives a salt, the structure may show the parent alone.

| molecule | units symbol | IC50 |
| --- | --- | --- |
| NC(=O)[C@@H]1CCCN1Cc1ccc(-c2ccc3ncnc(Nc4ccc5c(cnn5Cc5ccccc5)c4)c3c2)o1 [Example 18, dihydrochloride] | nM | 45 |
| CN(CCS(C)(=O)=O)Cc1ccc(-c2ccc3ncnc(Nc4ccc(OCc5ccccc5)cc4)c3c2)o1 | nM | 38 |
| c1ccc(COc2ccc(Nc3ncnc4ccc(-c5nnn[nH]5)cc34)cc2)cc1 | nM | 3 |
| Cn1cncc1-c1ccc2ncnc(Nc3ccc4c(cnn4Cc4ccccc4)c3)c2c1 | nM | 88 |
| C1=C(c2ccc3ncnc(Nc4ccc(OCc5ccccc5)cc4)c3c2)OCC1 | nM | 36 |
| c1ccc(COc2ccc(Nc3ncnc4ccc(-c5ccccn5)cc34)cc2)cc1 | nM | 29 |
| Cc1nnc(-c2ccc3ncnc(Nc4ccc(Oc5ccccc5)cc4)c3c2)o1 [Example 20, hydrochloride] | nM | 3 |
| CNS(=O)(=O)CCNCc1ccc(-c2ccc3ncnc(Nc4ccc(OCc5ccccc5)cc4)c3c2)o1 | nM | 24 |

---

# system tested: EGFr isolated from solubilised A431 cell membranes (Homo sapiens, UniProt P00533)
# Construct: EGFr isolated from solubilised A431 cell membranes; endogenous in cells; host or cells: A431 cell membranes (solubilised)
# Sequence (P00533 25-1210): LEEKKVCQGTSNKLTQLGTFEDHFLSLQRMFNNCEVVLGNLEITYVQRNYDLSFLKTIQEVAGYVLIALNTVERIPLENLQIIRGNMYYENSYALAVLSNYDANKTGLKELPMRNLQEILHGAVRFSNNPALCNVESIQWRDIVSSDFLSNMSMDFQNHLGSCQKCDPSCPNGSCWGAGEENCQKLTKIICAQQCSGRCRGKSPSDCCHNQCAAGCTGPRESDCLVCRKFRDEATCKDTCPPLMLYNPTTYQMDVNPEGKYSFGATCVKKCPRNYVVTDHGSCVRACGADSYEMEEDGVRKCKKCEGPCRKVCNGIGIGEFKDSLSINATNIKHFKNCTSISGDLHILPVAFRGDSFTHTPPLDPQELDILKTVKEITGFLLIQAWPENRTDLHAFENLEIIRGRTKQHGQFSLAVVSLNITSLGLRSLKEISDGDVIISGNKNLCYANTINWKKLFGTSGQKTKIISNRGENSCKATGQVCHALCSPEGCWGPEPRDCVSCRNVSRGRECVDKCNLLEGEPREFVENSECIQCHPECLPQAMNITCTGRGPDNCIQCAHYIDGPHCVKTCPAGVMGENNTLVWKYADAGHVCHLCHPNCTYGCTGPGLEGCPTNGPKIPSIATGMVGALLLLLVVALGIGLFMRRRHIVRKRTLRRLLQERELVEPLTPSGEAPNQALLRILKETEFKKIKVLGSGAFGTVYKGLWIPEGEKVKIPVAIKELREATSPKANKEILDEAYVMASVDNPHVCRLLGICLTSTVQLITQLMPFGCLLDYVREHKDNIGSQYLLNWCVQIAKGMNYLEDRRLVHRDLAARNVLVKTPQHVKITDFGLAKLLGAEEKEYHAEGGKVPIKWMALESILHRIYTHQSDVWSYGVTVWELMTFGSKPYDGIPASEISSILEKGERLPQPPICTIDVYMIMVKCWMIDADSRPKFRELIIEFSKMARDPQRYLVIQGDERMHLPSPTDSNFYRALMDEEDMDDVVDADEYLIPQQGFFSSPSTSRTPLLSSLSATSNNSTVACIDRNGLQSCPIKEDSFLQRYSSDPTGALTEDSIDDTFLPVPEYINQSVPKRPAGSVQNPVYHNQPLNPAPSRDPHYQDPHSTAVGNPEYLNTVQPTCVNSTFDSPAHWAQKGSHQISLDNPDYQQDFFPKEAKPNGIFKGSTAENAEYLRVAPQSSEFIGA
# protocol details: Substrate phosphorylation assay, EGFr
# Type: biochemical
Where a name gives a salt, the structure may show the parent alone.
# key: entry, value: IC50

| molecule | units symbol | IC50 |
| --- | --- | --- |
| c1ccc(COc2ccc(Nc3ncnc4ccc(-c5ccc(CNc6cccnc6)o5)cc34)cc2)cc1 [Example 14] | nM | 200 |
| Cc1nnc(-c2ccc3ncnc(Nc4ccc5c(cnn5Cc5cc(F)cc(F)c5)c4)c3c2)o1 [Example 31, hydrochloride] | nM | 9 |

---

# system tested: EGFr isolated from solubilised A431 cell membranes (Homo sapiens, UniProt P00533)
# Construct: EGFr isolated from solubilised A431 cell membranes; endogenous in cells; host or cells: A431 cell membranes (solubilised)
# protocol details: Substrate phosphorylation assay, EGFr
# Assay type: biochemical
# condition description: 30 minutes, room temperature, ATP and peptide at Km concentrations
Structures can show the parent of a compound that is named as a salt.
# key: entry, value: IC50

| molecule | IC50, nM |
| --- | --- |
| Cc1nnc(-c2ccc3ncnc(Nc4ccc(OCc5ccccc5F)c(Cl)c4)c3c2)o1 [Example 25, hydrochloride] | 22 |
| Cc1nnc(-c2ccc3ncnc(Nc4ccc(S(=O)(=O)c5ccccc5)cc4)c3c2)o1 [Example 30, hydrochloride] | 38 |
| c1ccc(COc2ccc(Nc3ncnc4ccc(-c5ccc(CNCC6CCCO6)o5)cc34)cc2)cc1 (stereo not shown) [Example 15, hydrochloride] | 540 |
| CS(=O)(=O)CCNCc1ccc(-c2ccc3ncnc(Nc4ccc5c(cnn5Cc5ccccc5)c4)c3c2)o1 [Example 19, dihydrochloride] | 8 |

---

# system tested: c-erbB-2 (baculovirus expressed, recombinant intracellular domain) (Homo sapiens, UniProt P04626)
# Construct: baculovirus expressed, recombinant constructs of the intracellular domains of c-erbB-2 and c-erbB-4; made in house
# protocol details: Substrate phosphorylation assay, c-erbB-2
# Type: biochemical
# condition description: read-out: Substrate Phosphorylation erbB-2
# Experimental: The substrate phosphorylation assays use baculovirus expressed, recombinant constructs of the intracellular domains of c-erbB-2 and c-erbB-4 that are constitutively active and EGFr isolated from solubilised A431 cell membranes. […] The plate is washed and level of phosphotyrosine on the peptide is determined using a Europium-labelled antiphosphotyrosine antibody and quantified with a time-resolved fluorescence technique.
pIC50: −log10 of the molar value. Structures can show the parent of a compound that is named as a salt.
# key: entry, value: pIC50
measured parameter: pIC50

| compound | numeric value |
| --- | --- |
| CN(C)Cc1nc(-c2ccc3ncnc(Nc4ccc(OCc5ccccc5)cc4)c3c2)no1 | 8.22 |
| NS(=O)(=O)CCNCc1ccc(-c2ccc3ncnc(Nc4ccc(OCc5ccccc5)cc4)c3c2)o1 | 7.92 |
| c1ccc(COc2ccc(Nc3ncnc4ccc(-c5ncccn5)cc34)cc2)cc1 | 7.46 |
| CS(=O)(=O)CCNCc1ccc(-c2ccc3ncnc(Nc4ccc5c(cnn5Cc5ccccc5)c4)c3c2)o1 [Example 19, dihydrochloride] | 9.00 |
| Cc1nnc(-c2ccc3ncnc(Nc4ccc(OCc5ccccc5F)cc4)c3c2)o1 [Example 28, hydrochloride] | 8.15 |
| COC(=O)c1ccc(-c2ccc3ncnc(Nc4ccc(OCc5ccccc5)cc4)c3c2)o1 | 7.70 |
| c1ccc(COc2ccc(Nc3ncnc4ccc(-c5ccc(CNc6cccnc6)o5)cc34)cc2)cc1 | 7.47 |
| CCN(CCN(C)C)Cc1ccc(-c2ccc3ncnc(Nc4ccc(OCc5ccccc5)cc4)c3c2)o1 | 6.46 |
| Cc1noc(-c2ccc3ncnc(Nc4ccc5c(cnn5Cc5ccccc5)c4)c3c2)n1 [Example 55, hydrochloride] | 8.00 |
| Cc1nnc(-c2ccc3ncnc(Nc4ccc5c(cnn5Cc5ccccc5)c4)c3c2)[nH]1 | 8.15 |
| CN(C)CCc1nc(-c2ccc3ncnc(Nc4ccc(OCc5ccccc5)cc4)c3c2)no1 | 7.08 |
| Cc1nnc(-c2ccc3ncnc(Nc4ccc5c(cnn5Cc5ccccc5F)c4)c3c2)o1 [Example 21, hydrochloride] | 8.05 |

---

# system tested: HB4a cell line transformed by over-expression of c-erbB-2 (Homo sapiens, UniProt P04626)
# Sequence (P04626 whole entry, change not shown): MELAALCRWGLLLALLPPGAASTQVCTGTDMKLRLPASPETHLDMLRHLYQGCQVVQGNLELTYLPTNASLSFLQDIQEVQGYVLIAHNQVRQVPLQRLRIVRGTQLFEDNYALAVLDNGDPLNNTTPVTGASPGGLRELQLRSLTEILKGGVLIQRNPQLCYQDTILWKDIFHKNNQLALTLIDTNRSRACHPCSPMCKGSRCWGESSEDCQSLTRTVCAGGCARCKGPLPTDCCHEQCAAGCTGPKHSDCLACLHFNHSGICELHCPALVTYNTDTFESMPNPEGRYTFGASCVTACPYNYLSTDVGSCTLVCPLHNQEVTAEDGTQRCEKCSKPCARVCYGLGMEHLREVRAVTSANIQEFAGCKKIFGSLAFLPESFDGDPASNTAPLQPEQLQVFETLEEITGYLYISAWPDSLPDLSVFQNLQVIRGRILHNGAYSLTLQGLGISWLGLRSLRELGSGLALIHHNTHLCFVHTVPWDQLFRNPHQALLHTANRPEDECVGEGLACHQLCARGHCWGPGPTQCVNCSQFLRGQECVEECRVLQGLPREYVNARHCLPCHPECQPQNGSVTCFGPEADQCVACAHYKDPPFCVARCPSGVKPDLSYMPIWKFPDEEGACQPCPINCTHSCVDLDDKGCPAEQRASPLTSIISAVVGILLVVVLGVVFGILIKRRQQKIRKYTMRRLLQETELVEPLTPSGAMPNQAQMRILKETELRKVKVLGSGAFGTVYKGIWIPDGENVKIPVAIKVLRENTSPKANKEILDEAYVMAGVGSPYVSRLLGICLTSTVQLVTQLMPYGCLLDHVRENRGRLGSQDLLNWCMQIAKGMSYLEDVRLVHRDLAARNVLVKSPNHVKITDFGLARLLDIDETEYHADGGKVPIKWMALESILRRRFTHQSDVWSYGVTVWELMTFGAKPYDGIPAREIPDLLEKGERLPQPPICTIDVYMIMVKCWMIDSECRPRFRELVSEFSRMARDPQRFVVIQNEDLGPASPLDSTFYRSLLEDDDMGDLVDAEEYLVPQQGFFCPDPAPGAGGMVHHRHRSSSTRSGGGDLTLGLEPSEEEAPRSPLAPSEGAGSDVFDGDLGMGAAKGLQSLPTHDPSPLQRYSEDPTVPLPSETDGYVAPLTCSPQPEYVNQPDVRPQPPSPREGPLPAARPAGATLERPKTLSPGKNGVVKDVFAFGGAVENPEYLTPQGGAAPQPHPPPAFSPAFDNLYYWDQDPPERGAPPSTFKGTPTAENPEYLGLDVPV
# protocol details: Cell proliferation assay, HB4a erbB-2
# Type: cell-based
# condition description: 4 days at 37° C., methylene blue staining; read-out: Cell Proliferation HB4a erbB-2
Counter-ions that a name gives are not always drawn.

| compound | GI50 [nM] |
| --- | --- |
| Cn1cncc1-c1ccc2ncnc(Nc3ccc(OCc4ccccc4)cc3)c2c1 | 1600 |
| Cc1nnc(-c2ccc3ncnc(Nc4ccc5c(cnn5Cc5cccc(F)c5)c4)c3c2)o1 [Example 22, hydrochloride] | 430 |
| Cc1nnc(-c2ccc3ncnc(Nc4ccc(OCc5cccc(F)c5)c(Cl)c4)c3c2)o1 [Example 26, hydrochloride] | 650 |
| Cc1nnc(-c2ccc3ncnc(Nc4ccc(S(=O)(=O)c5ccccc5)cc4)c3c2)o1 [Example 30, hydrochloride] | 5400 |
| COC(=O)c1ccc(-c2ccc3ncnc(Nc4ccc(OCc5ccccc5)cc4)c3c2)o1 | 38000 |
| CS(=O)(=O)CCNC(=O)c1ccc(-c2ccc3ncnc(Nc4ccc(OCc5ccccc5)cc4)c3c2)o1 [Example 53, hydrochloride] | 1800 |
| CS(=O)(=O)CCNCc1ccc(-c2ccc3ncnc(Nc4ccc5c(cnn5Cc5ccccc5)c4)c3c2)o1 [Example 19, dihydrochloride] | 50 |
| c1ccc(Cn2ncc3cc(Nc4ncnc5ccc(-c6noc(Cc7cccnc7)n6)cc45)ccc32)cc1 | 500 |
| C1=C(c2ccc3ncnc(Nc4ccc(OCc5ccccc5)cc4)c3c2)OCC1 | 1300 |
| Cc1nnc(-c2ccc3ncnc(Nc4ccc5c(cnn5Cc5cccc(F)c5F)c4)c3c2)o1 [Example 24, hydrochloride] | 17000 |
| CS(=O)(=O)CCNCc1nc(-c2ccc3ncnc(Nc4ccc5c(cnn5Cc5ccccc5)c4)c3c2)no1 | 790 |

All values here come from patent US6828320B2.
